molecular target: ErbB4 on neonatal rat cardiomyocytes (rat) (UniProt Q62956); assay: cell-based or functional assay
Sequence (Q62956 26-1308): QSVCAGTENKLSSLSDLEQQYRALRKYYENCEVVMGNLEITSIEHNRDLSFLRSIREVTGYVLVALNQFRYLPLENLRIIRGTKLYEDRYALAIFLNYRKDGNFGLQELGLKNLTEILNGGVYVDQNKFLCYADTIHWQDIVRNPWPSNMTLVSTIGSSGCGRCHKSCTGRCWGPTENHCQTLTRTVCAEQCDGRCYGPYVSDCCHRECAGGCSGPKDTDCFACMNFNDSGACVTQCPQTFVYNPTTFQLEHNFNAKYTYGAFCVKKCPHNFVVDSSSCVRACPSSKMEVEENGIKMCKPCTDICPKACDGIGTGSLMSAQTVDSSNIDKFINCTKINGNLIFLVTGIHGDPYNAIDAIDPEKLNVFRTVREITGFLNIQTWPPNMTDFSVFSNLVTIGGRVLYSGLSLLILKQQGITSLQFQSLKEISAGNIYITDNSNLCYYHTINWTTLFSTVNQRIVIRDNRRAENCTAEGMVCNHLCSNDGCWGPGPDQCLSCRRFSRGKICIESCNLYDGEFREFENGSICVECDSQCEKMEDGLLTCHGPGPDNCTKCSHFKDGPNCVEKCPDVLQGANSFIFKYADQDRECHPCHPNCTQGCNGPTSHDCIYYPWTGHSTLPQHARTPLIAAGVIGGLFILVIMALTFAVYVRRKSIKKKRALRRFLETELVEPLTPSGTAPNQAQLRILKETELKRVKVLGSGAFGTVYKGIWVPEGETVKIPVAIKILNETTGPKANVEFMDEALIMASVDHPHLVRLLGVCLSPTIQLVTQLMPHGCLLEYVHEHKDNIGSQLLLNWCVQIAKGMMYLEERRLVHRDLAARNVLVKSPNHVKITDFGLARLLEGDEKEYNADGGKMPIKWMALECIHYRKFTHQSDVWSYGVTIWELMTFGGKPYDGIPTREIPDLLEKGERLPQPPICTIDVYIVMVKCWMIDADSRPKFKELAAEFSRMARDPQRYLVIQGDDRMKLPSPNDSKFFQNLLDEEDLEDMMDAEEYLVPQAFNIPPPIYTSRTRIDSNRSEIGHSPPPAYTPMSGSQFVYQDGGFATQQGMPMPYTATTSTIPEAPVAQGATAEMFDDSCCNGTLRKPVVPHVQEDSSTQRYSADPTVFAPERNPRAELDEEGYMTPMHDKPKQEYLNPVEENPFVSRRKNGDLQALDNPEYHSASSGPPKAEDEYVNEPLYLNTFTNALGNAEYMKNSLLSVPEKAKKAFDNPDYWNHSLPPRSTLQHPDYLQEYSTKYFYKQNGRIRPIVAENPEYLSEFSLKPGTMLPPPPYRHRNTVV
RESULT_TYPE: CM % Agonism AVG (%)
Kindly provide the numeric value in % only, without the unit symbol.

Look at this binder and give its reported CM % Agonism AVG. huNRG1(S177-F229)(NRGE1D)::1KmodT482V, M493L)::huFcSEFL2 (Pb) (Fc fusion) SHLVKCGESHKSFCVNGGECYMVEGSSIPSRYLCKCPNEFTGDRCQEDFMASFGSGSATGGSGSVASSGSGSATHLDKTHTCPPCPAPELLGGPSVFLFPPKPKDTLMISRTPEVTCVVVDVSHEDPEVKFNWYVDGVEVHNAKTKPCEEQYGSTYRCVSVLTVLHQDWLNGKEYKCKVSNKALPAPIEKTISKAKGQPREPQVYTLPPSREEMTKNQVSLTCLVKGFYPSDIAVEWESNGQPENNYKTTPPVLDSDGSFFLYSKLTVDKSRWQQGNVFSCSVMHEALHNHYTQKSLSLSPGK
83.4

src = patent US20220402985A1
